- Tested on: Thyroperoxidase (TPO), gene 54314
- TEST DESCRIPTION: CCTE_Simmons_AUR_rTPO: CCTE's Amplex UltraRed Assay for Thyroperoxidase (TPO) Inhibition, Simmons Lab (AID 2283662)
Calls of active or inactive are those of the source. The calls were made as follows: active = hit-call score of the fitted dose curve at least 0.9, where 1 is the maximum; inconclusive = response in the unintended direction; inactive = score below 0.9.
Outcomes: active, inactive

CC(CCC(=O)O)(c1ccc(O)cc1)c1ccc(O)cc1; active
CCCCCCCCCCCCc1ccc(O)cc1; active
COc1ccc(C(=O)c2ccccc2)c(O)c1; inactive
CCCCCCCOC(=O)c1ccc(O)cc1; active
O=C(O)c1cc(O)c2ccccc2c1O; active
CN(C)c1ccc2nc3ccc(=[N+](C)C)cc-3sc2c1; active
COC(=O)c1ccccc1C; inactive

---

- TEST DESCRIPTION: ATG_PXRE_CIS: Attagene CIS-FACTORIAL HepG2 Assay for human Pregnane X Receptor Element (PXRE) (AID 2282957)
- RUN CONDITIONS: HepG2 Attagene CIS-FACTORIAL PXRE reporter, mRNA; actives raise or lower the signal
Activity calls are given as the source filed them. Rule for the calls: active = hit-call score of the fitted dose curve at least 0.9, where 1 is the maximum; inactive = score below 0.9.
Outcomes: true (active), false (inactive)

CCc1cccc(C)c1N; true
CC12CCC(CC1)C(C)(C)O2; false
C[Si](C)(C)N[Si](C)(C)C; false
COCC(=O)O; false
CCCCCCCCCC[N+](C)(CCCCCCCCCC)CCC[Si](OC)(OC)OC; true
CCOC(=O)CC(=O)c1ccccc1; true
C=CC(=O)OCC(C)OCC(C)OCC(C)OC(=O)C=C (stereo unspecified); true
Oc1ccccc1Cc1ccccc1O; true
COC(=O)CC(C)CCC=C(C)C (stereo unspecified); true
CC1=CP(=O)(c2ccccc2)CC1 (stereo unspecified); true
COC(=O)c1ccc(C(=O)OC)c(C(=O)OC)c1; false
[Cl][Sc]([Cl])[Cl]; false
CCCCCCOc1ccc(N)cc1; true
CCCCCCCCCC(C)=O; false
CC(Cl)COP(=O)(OCC(C)Cl)OCC(C)Cl (stereo unspecified); true
Nc1nc(N)nc(-c2ccccc2)n1; false
CCC(C)N (stereo unspecified); true
Cc1c(C(=O)c2c[nH]n(C)c2=O)ccc(S(C)(=O)=O)c1C1=NOCC1; true
Oc1ccc(/C=C/c2cc(O)cc(O)c2)cc1; false
Cc1ccc(S(=O)(=O)N=C=O)cc1; false
Cc1cc(=O)[nH]c(=O)[nH]1; true
N=C1C=CC(=C(c2ccc(N)cc2)c2ccc(N)cc2)C=C1; true
CCCCCC(=O)OCC; false
Fc1ccc(Br)cc1; false
CC(C)c1cc(C(C)C)cc(C(C)C)c1; true
O=C(O)C1CCC(C(=O)O)CC1 (stereo unspecified); false
CCCCOCCOC(=O)COc1ccc(Cl)cc1Cl; true
Nc1ccnc(=O)[nH]1; false
CCc1occc(=O)c1O; true
Cc1noc(NS(=O)(=O)c2ccc(N)cc2)c1C; false
[Cl][Eu]([Cl])[Cl]; false

---

- ASSAY SYSTEM: Cellular tumor antigen p53 (Homo sapiens)
- TEST DESCRIPTION: TOX21_p53_BLA_p2_ratio: Tox21 HCT-116 p53 Agonism Beta-lactamase Assay, Ratio, Phase 2 (AID 2283592)
Records with an inconclusive call do not appear. Active and inactive are the calls of the source. How the source made its calls: active means hit-call score of the fitted dose curve at least 0.9, where 1 is the maximum; inconclusive means response in the unintended direction; inactive means score below 0.9.
MEASUREMENT NAME: AC50

C=C(C)C1CC=C(C)C(OC(C)=O)C1 (configuration not stated); inactive
CCN1CCCC1=O; inactive
CC(=O)c1ccc(S(=O)(=O)NC(=O)NC2CCCCC2)cc1; inactive
O=C1CCCCCCCCCCC1; inactive
CC(=O)CCC=C(C)C; inactive
C=C(C)C(=O)OCC(O)COc1ccc(C(C)(C)c2ccc(OCC(O)COC(=O)C(=C)C)cc2)cc1 (configuration not stated); inactive
CCCCCCO; inactive
CCCC(CC)c1ccccc1 (configuration not stated); inactive
CC(C)CC(=O)OCc1ccccc1; inactive
CCCCCCCCCCCC(=O)OCC; inactive
CCCCCCCCCCCCCC(=O)OC(C)C; inactive
C=C[C@@]1(C)CC(=O)[C@]2(O)[C@@]3(C)[C@@H](O)CCC(C)(C)[C@@H]3[C@H](O)[C@H](OC(C)=O)[C@@]2(C)O1; inactive
C/C=C/C=C/CCCCCCCO; inactive
CCCCNS(=O)(=O)c1ccc(C)cc1; inactive
CC1=C(O)C(=O)C(C)O1 (configuration not stated); inactive
CCCCC1CCC(=O)O1 (configuration not stated); inactive
CCCCNS(=O)(=O)c1ccccc1; inactive
CC1C(C)(C)C2=C(C(=O)CCC2)C1(C)C (configuration not stated); inactive
O=C(C=Cc1ccccc1)OCCc1ccccc1; inactive
C[Si]1(C)O[Si](C)(C)O[Si](C)(C)O[Si](C)(C)O[Si](C)(C)O1; inactive
CC1(C)CCC[C@]2(C)[C@H]3CC(=O)O[C@]3(C)CC[C@@H]12; inactive
CC/C=C\CCOC(=O)c1ccccc1O; inactive
C=C(C)C(=O)OCCCCCCCCCCCC; inactive
CC(C)(O)Cc1ccccc1; inactive
CC1=CC(C)C(C=O)CC1 (configuration not stated); inactive
N#Cc1ccc(C2CCCc3cncn32)cc1 (configuration not stated); inactive
O=C(O)C1CCC(C(=O)O)CC1 (configuration not stated); inactive
CCc1cccc(C)c1N; inactive
CC(C)C(=O)OCCOc1ccccc1; inactive
C1CNCCN1; inactive
Cc1cccc(C(C)(C)C)c1O; inactive
O=C1CCCCCCCCCCCN1; inactive
CC(C)COC(=O)CC(C(=O)OCC(C)C)S(=O)(=O)O (configuration not stated); inactive
CCCCCCCC(=O)OCC(COC(=O)CCCCCCC)OC(=O)CCCCCCC; inactive
CCCCOCC(C)O (configuration not stated); inactive
Cc1noc(NS(=O)(=O)c2ccc(N)cc2)c1C; inactive
CC(CCC(=O)O)(c1ccc(O)cc1)c1ccc(O)cc1; inactive
C=CC(=O)OCC(C)OCC(C)OCC(C)OC(=O)C=C (configuration not stated); inactive
CC1(C)[C@@H]2CC[C@@]1(C)C(=O)C2; inactive
CCCCCC[C@@H](O)C/C=C\CCCCCCCC(=O)OCC(O)CO (some centres not stated); inactive
C=C1C[C@H]2[C@@H]3C=C(C)C4=CC(=O)CC[C@]4(C)[C@H]3CC[C@]2(C)[C@@]1(OC(C)=O)C(C)=O; inactive
CC(C)(C)C1CCC(=O)CC1; inactive
CCC(C)C(=O)OCCc1ccccc1 (configuration not stated); inactive
CCCCCOC(=O)CCCCC; inactive
O=C(Nc1ccccc1)c1cc(Cl)ccc1O; 3.55 µM (active)
CC(C)(C)NC(=O)[C@H]1CC[C@H]2[C@@H]3CC[C@H]4NC(=O)C=C[C@]4(C)[C@H]3CC[C@]12C; inactive
CC(=O)OCC=C(C)C; inactive
COC(C=C(C)CCC=C(C)C)OC; inactive
CC(C)c1ccc(O)c(C(C)C)c1; inactive
CC(C)[N+](C)(CCOC(=O)C1c2ccccc2Oc2ccccc21)C(C)C; inactive
O=S(=O)(O)c1ccc(N=Nc2c(O)ccc3ccccc23)cc1; inactive
O=C(Oc1ccccc1)c1ccccc1C(=O)Oc1ccccc1; inactive
CO[Si](C)(C)OC; inactive
C=CCNCC=C; inactive
CCCC/C=C/C=C\C=O; inactive
CC(=O)OC/C=C(/C)CCC=C(C)C; inactive
CC1CC(=O)CC(C)(C)C1 (configuration not stated); inactive
